biological target: Human immunodeficiency virus type 1 protease (Human immunodeficiency virus 1, UniProt Q72874)
measured-parameter: Ki (µM)
Reply numerically in µM, unit not repeated.

Task item: Name the reported Ki value associated with the compound COC(=O)C(NC(=O)C(NC(=O)[C@H](C)N1CCC(C(C)N(C)C(C)C(=O)O)=CC(Cc2ccccc2)C1=O)C(C)C)C(C)C (stereo partly specified)
Reply: 147
